# Tested target: CD28 (human) (UniProt P10747)
# Experiment description: flow cytometry, Jurkat cells (CD28); MFI over CD80 WT IgV-Fc
Recorded endpoint: Fold change to WT CD80 (fold)

CD80 E35D/M47V/N48K/V68M/K89N IgV-Fc, EAAAK linker (Fc fusion) VIHVTKEVKEVATLSCGHNVSVEELAQTRIYWQKDKKMVLTMMSGDVKIWPEYKNRTIFDITNNLSIMILALRPSDEGTYECVVLKYENDAFKREHLAEVTLSVKADEAAAK
47.1
CD80 E35D/D46V/M47L/V68M/L85Q/E88D IgV-Fc, GS(G4S)5 linker (Fc fusion) VIHVTKEVKEVATLSCGHNVSVEELAQTRIYWQKDKKMVLTMMSGVLNIWPEYKNRTIFDITNNLSIMILALRPSDEGTYECVVQKYDKDAFKREHLAEVTLSVKADGSGGGGSGGGGSGGGGSGGGGSGGGGS
2.6
CD80 E35D/M47V/N48K/V68M/K89N IgV-Fc, (EAAAK)3 linker (Fc fusion) VIHVTKEVKEVATLSCGHNVSVEELAQTRIYWQKDKKMVLTMMSGDVKIWPEYKNRTIFDITNNLSIMILALRPSDEGTYECVVLKYENDAFKREHLAEVTLSVKADEAAAKEAAAKEAAAK
23

1 = variant CD80 IgV-Fc (inert) H18V/E35D/M47V/V68M/A71G/D90G (Fc fusion) VIHVTKEVKEVATLSCGVNVSVEELAQTRIYWQKDKKMVLTMMSGDVNIWPEYKNRTIFDITNNLSIMILGLRPSDEGTYECVVLKYEKGAFKREHLAEVTLSVKAD
2 = variant CD80 IgV-Fc (inert) H18F/A26N/E35D/M47V/V68M/A71G/D90K (Fc fusion) VIHVTKEVKEVATLSCGFNVSVEELNQTRIYWQKDKKMVLTMMSGDVNIWPEYKNRTIFDITNNLSIMILGLRPSDEGTYECVVLKYEKKAFKREHLAEVTLSVKAD
**Query** Looking only at measured Fold change to WT CD80, which entry is lower, 1 or 2 ? Answer with the label corresponding to your selection.
**Result** 1
